TEST DESCRIPTION: chemical genetic growth profiling, strain panel (AID 1159580);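 note: tested at 20 µM; growth read once vehicle control cultures reached saturation at 30 °C; lower values mean less growth of the strain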
RECORDED CONDITIONS: S. cerevisiae deletion strains, growth OD, locus YBR023C, strain chs3
Screen size: about 5,500 compounds; about 2,000 (36%) were called active. Not shown: some 18% with an inconclusive outcome. Cut-off read from the data, not from the text of the source: active = normalized growth mostly below about 0.91 (no sharp cut-off); inconclusive = no clear call, values can overlap the other calls; inactive = mostly above about 0.92. This is one part of the list.
Pick from Y (active), N (inactive) when you respond.

Answered cases to consult:
COMPOUND: O=C1c2cccc(O)c2C(=O)c2c(O)cccc21
QUALITATIVE LABEL: Y
//
COMPOUND: CC(=O)c1c(O)cc(O)cc1O
QUALITATIVE LABEL: N
//
COMPOUND: O=C(O)CC[N+](=O)[O-]
QUALITATIVE LABEL: N
//
COMPOUND: O=C(O)c1cccnc1C(=O)O
QUALITATIVE LABEL: N
//
COMPOUND: CCCCN(CC)c1c([N+](=O)[O-])cc(C(F)(F)F)cc1[N+](=O)[O-]
QUALITATIVE LABEL: N
//
COMPOUND: CC(=O)NC1C(O)OC(COS(=O)(=O)O)C(OC2OC(C(=O)O)C(OC3OC(CO)C(OC4OC(C(=O)O)C(O)C(O)C4OS(=O)(=O)O)C(OS(=O)(=O)O)C3NS(=O)(=O)O)C(O)C2OS(=O)(=O)O)C1O (centres undefined)
QUALITATIVE LABEL: N
//
COMPOUND: COCC1=C(C(=O)OC(C)OC(=O)OC(C)C)N2C(=O)[C@@H](NC(=O)/C(=N\OC)c3csc(N)n3)[C@H]2SC1 (some centres undefined)
QUALITATIVE LABEL: N
//
COMPOUND: COC(=O)C[C@H]1C(C)(C)[C@@H](OC(C)=O)[C@@H]2CC3=C4CC(=O)O[C@@H](c5ccoc5)[C@]4(C)CCC3[C@@]1(C)C2=O (some centres undefined)
QUALITATIVE LABEL: N

stdin: What classification did CC(C)[C@@H]1CC[C@@H](C)CC1=O end up with in this test?
stdout: N
